Test system: OVCAR-3 ovarian
Assay: NCI-60 one-dose screen, 48 h
Details: 10 µM unless noted
Compounds without any hit were thinned out: in the full panel of roughly 83,000, 20% have a hit. Active and inactive are the calls of the source. The calls were made as follows: active = growth percent below 10; inactive = the rest.
Bench note: report the call from Yes (active), No (inactive)

query: GET /call?item= `Cc1ccc(S(=O)(=O)c2nc(-c3ccccc3)oc2SCC(N)=O)cc1` returns the recorded outcome of this test.
result: No

query: Identify the outcome logged in this assay for the molecule shown: COc1ccc(C2C3=C(COC3=O)N(CCO)c3cc4c(cc32)OCO4)cc1OC (stereo not given)
result: No

query: Any idea what this test logged for `COc1ccc(-c2nc(SCC(=O)Nc3nc4ccc(C)cc4s3)[nH]c(=O)c2C#N)cc1OC` ?
result: No

query: Recorded test outcome, item `N#Cc1c(-c2ccccc2)cc(-c2ccccc2)n(CCCCC(=O)NO)c1=O`
result: No

query: What did this assay record as the result for `CCN1CCN(CCNc2nccc(-c3c(-c4ccc(F)c(O)c4)nc4occn34)n2)S1(=O)=O` ?
result: No

query: // outcome(item) with item = `C=C1SC(=Nc2ccccc2Cl)N(C(=O)c2sc3ccccc3c2Cl)C1(C)C`
result: No

query: Status in this test for `CCOC(=O)c1c(C)nc2c(c1N)C(=O)C(=O)N2Cc1ccc(OC)cc1` ?
result: No

query: What classification did C#CCOc1cccc(Nc2ncnc3c2ncn3C2CCN(C(=O)CCl)C2)c1 (stereo not given) end up with in this test?
result: Yes

query: Hi, sorry to bother you, what did the test record for `Cc1ccc(S(=O)(=O)N2CCCN(c3nc(-c4ccccc4)nc4nc(-c5ccccc5)oc34)CC2)cc1` ?
result: No

query: Dear all, I need the recorded test outcome for `c1cc(OCCN2CCCC2)ccc1CNc1ccc2nc(CCC3CCCCC3)[nH]c2c1` , thank you.
result: No

query: For CCn1cc(C(=O)O)c(=O)c2cc(F)c(N3CCN(CC(=O)Nc4ccccc4)C(C)C3)c(F)c21 (stereo not given) , which call appears in the assay record?
result: No

query: Name the outcome recorded for `COc1cc(C[C@H]2COc3cc(O)cc(O)c3C2=O)ccc1O` in the assay.
result: No

query: Recorded test call requested for CCN1C(=O)N(c2ccccc2)C2NC(=S)N(/N=C/C=C/c3ccccc3OC)C21 (stereo not given)
result: Yes

query: What outcome does the record of this test show for `CNC(=O)Nc1ccc(-c2ccc3ncnc(Nc4cccc(Cl)c4)c3c2)cc1` ?
result: No

query: What did this assay record as the result for `N#Cc1c(-c2cccc(Cl)c2)cc(-c2cccnc2)[nH]c1=O` ?
result: No

query: Answer briefly: the call reported for `N=C(N)c1ccc(-c2ccc(-c3cc(Cl)cc(Cl)c3)s2)s1` in this assay.
result: Yes

query: Given `O=C(Cc1ccc(/C=C/C(=O)c2ncc[nH]2)cc1)Nc1cc(F)c(F)c(F)c1` , state the outcome it received in this test.
result: Yes

query: Just curious, what result did COc1ccccc1S(=O)(=O)Nc1ccc2c3c(cc(CCC(=O)NCCCCNc4cccc5c4C(=O)N(C4CCC(=O)NC4=O)C5=O)cc13)C(=O)N2C (stereo not given) get here?
result: No

query: Hi, do you know how `COc1ccc(CNc2ccc3nc(NC(=O)CN4CCCCCC4)sc3c2)cc1` came out in this test?
result: No

query: State the result this test recorded for `O=C(NCCCCCCNC(=O)OCc1ccc2c(Cl)cc(Cl)c(O)c2n1)OCc1ccc2c(Cl)cc(Cl)c(O)c2n1` .
result: Yes

Data provenance is PubChem BioAssay (NCI).
